target: IDH1 R132H (Homo sapiens, UniProt O75874, R132H); assay: Assay for IDH1 R132H inhibitors (NADPH/aKG, resazurin detection); assay type: biochemical; settings: enzyme assay of Example 12; read-out: IDH1R132H IC50
Sequence (O75874 whole entry R132H): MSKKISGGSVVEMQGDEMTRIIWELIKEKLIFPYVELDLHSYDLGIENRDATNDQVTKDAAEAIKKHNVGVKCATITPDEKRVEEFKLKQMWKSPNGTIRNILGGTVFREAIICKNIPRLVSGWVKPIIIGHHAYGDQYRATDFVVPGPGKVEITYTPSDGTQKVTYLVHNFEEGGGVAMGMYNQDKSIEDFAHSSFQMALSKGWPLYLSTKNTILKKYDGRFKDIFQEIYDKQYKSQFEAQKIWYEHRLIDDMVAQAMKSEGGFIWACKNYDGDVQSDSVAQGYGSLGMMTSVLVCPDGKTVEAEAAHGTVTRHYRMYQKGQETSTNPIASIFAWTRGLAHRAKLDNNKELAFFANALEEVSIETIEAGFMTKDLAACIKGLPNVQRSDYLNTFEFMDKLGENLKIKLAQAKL
pIC50: −log10 of the molar value.
measuredQuantity: pIC50

Example entries and their recorded answers appear below.
> print(dat)
                                  smilesdata  measuredquantity      observed
 1  N#Cc1cncc(-c2cc(C#N)c(N3CCN(C(=O)CC(F)(F)F)[C@H](C4CC4)C3)nc2C2CC2)c1             pIC50        > 6.30
 2  C=Cc1cc(Nc2cc(C#N)c(N3CCN(C(=O)COC)[C@H](C4CC4)C3)nc2C2CC2)ccn1             pIC50        > 6.30
 3  COCCC(=O)N1CCN(c2nc(C3CC3)c(Nc3ccc(F)cc3)cc2C#N)C[C@H]1C             pIC50  6.00 to 6.30
 4  C=Cc1cc(-c2cc(C#N)c(N3CCN(C(=O)COC)[C@H](C(C)C)C3)nc2C2CC2)ccn1             pIC50        > 6.30
 5  COCCC(=O)N1CCN(c2nc(C3CC3)c(-c3ccc4ncccc4c3)cc2C#N)C[C@H]1C             pIC50        > 6.30
 6  COCCC(=O)N1CCN(c2nc(C3CC3)c(-c3cccc(NC(=O)[C@@H](C)Cl)c3)cc2C#N)C[C@H]1C             pIC50  6.00 to 6.30
 7  C=Cc1cc(-c2cc(C#N)c(N3CCN(C(C)=O)[C@H](C4CC4)C3)nc2C2CC2)ccn1             pIC50        > 6.30
 8  COCCC(=O)N1CCN(c2nc(C3CC3)c(OCc3ccc(OC)cc3)cc2C#N)C[C@H]1C             pIC50  6.00 to 6.30
 9  C=CS(=O)(=O)N(c1cccc(-c2c(C3CC3)nc(N3CCN(C(=O)C4CC4)[C@H](C4CC4)C3)c(C#N)c2C)c1)S(=O)(=O)C=C             pIC50        > 6.30
10  C=Cc1cc(-c2c(C3CC3)nc(N3CCN(C(=O)CCOC)[C@H](C)C3)c(C#N)c2C)ccn1             pIC50        > 6.30

The reported value for "N#Cc1cc(-c2cccc3c[n+]([O-])ccc23)c(C2CC2)nc1N1CCN(C(=O)C2CC2)[C@H](C2CC2)C1" in terms of pIC50 is > 6.30

The reported value for "C=Cc1ccnc(N(c2cc(C=C)ccn2)c2cc(C#N)c(N3CCN(C(=O)CCOC)[C@H](C)C3)nc2C2CC2)c1" in terms of pIC50 is > 6.30

The reported value for "C#Cc1ccnc(N(c2cc(C#C)ccn2)c2cc(C#N)c(N3CCN(C(=O)CCOC)[C@H](C)C3)nc2C2CC2)c1" in terms of pIC50 is > 6.30

The reported value for "C=Cc1cc(-c2c(C3CC3)nc(N3CCN(C(=O)CCO)[C@H](C(C)C)C3)c(C#N)c2C)cnn1" in terms of pIC50 is > 6.30

The reported value for "CCO[C@H]1C[C@H]1C(=O)N1CCN(c2nc(C3CC3)c(-c3ccc(F)cc3)cc2C#N)C[C@H]1C1CC1" in terms of pIC50 is > 6.30

The reported value for "C=Cc1cc(Cc2cc(C#N)c(N3CCN(C(=O)C4CC4)[C@H](C4CC4)C3)nc2C2CC2)ccn1" in terms of pIC50 is > 6.30

The reported value for "COCCC(=O)N1CCN(c2nc(C3CC3)c(-c3cccc(OC)c3F)c(C)c2C#N)C[C@H]1C" in terms of pIC50 is 6.00 to 6.30

The reported value for "COCCC(=O)N1CCN(c2nc(C3CC3)c(O[C@H](C)c3ccccc3)cc2C#N)C[C@H]1C" in terms of pIC50 is > 6.30

The reported value for "CS(=O)(=O)n1cc(-c2cc(C#N)c(N3CCN(C(=O)C4CC4)[C@H](C4CC4)C3)nc2C2CC2)cn1" in terms of pIC50 is 6.00 to 6.30

The reported value for "COCCC(=O)N1CCN(c2nc(C3CC3)c(-c3ccc(F)cc3F)c(C)c2C#N)C[C@H]1C" in terms of pIC50 is 6.00 to 6.30

The reported value for "COCCC(=O)N1CCN(c2nc(C3CC3)c(-c3cnn(Cc4ccccc4)c3)c(C)c2C#N)C[C@H]1C" in terms of pIC50 is > 6.30

The reported value for "C=Cc1ncc2c(-c3cc(C#N)c(N4CCN(C(=O)CCOC)[C@H](C5CC5)C4)nc3C3CC3)cccc2n1" in terms of pIC50 is > 6.30

The reported value for "COCCC(=O)N1CCN(c2nc(C3CC3)c(Oc3cc(Cl)ncn3)cc2C#N)C[C@H]1C" in terms of pIC50 is > 6.30

The reported value for "C=Cc1cnnc(Nc2cc(C#N)c(N3CCN(C(=O)CCOC)[C@H](C4CC4)C3)nc2C2CC2)c1" in terms of pIC50 is > 6.30

The reported value for "C=Cc1cc(-c2c(C3CC3)nc(N3CCN(C(=O)CC4CC4)[C@H](C4CC4)C3)c(C#N)c2C)ccn1" in terms of pIC50 is > 6.30
